The molecules listed here are annotated with their solubility at 24 h.
# protocol.text: High throughput solubility assay
# Format: physicochemical
# assay.setup: aqueous buffer, pH 7.4, 0.05M phosphate buffer

Reference set (3 entries):
molecule | reported.measurement
C[C@@H](Oc1cc(-n2cnc3ccc(OC4CCN(C)CC4)cc32)sc1C(N)=O)c1ccccc1C(F)(F)F | > 100 µM
C[C@@H](Oc1cc(-n2cnc3ccc(CN4CCN(C)CC4)cc32)sc1C(N)=O)c1ccccc1Cl | > 100 µM
NC(=O)c1sc(-n2cnc3ccc(OCC4CCNCC4)cc32)cc1OCc1ccccc1C(F)(F)F [Com. Ex 143, reference compound] | < 30 µM

Attention now shifts to the item below.
stdin: Give the reported value of solubility at 24 h for this record: C[C@@H](Oc1cc(-n2cnc3ccc(OC4CCNCC4)cc32)sc1C(N)=O)c1ccccc1C(F)(F)F
stdout: > 100 µM

---

# System: human plasma proteins
# protocol.text: Protein binding to human plasma proteins using equilibrium dialysis
# Format: in vitro ADME
# assay.setup: pH 7.4, equilibrium dialysis 6 h, 37° C.
Documented fraction unbound at 6 h, 2000 ng/mL across a set of molecules

Some molecules with known fraction unbound at 6 h, 2000 ng/mL results, for comparison:
molecule | fraction unbound at 6 h, 2000 ng/mL
C[C@@H](Oc1cc(-n2cnc3ccc(OC4CCN(C)CC4)cc32)sc1C(N)=O)c1ccccc1Cl | > 0.05
CS(=O)(=O)c1ccc2ncn(-c3cc(OCc4ccccc4C(F)(F)F)c(C(N)=O)s3)c2c1 [Com. Ex 121, reference compound] | 0.02 to 0.05
C[C@@H](Oc1cc(-n2cnc3ccc(OC4CCNCC4)cc32)sc1C(N)=O)c1ccccc1C(F)(F)F | 0.02 to 0.05
C[C@@H](Oc1cc(-n2cnc3ccc(OC4CCN(C)CC4)cc32)sc1C(N)=O)c1ccccc1C(F)(F)F | > 0.05
C[C@@H](Oc1cc(-n2cnc3ccc(CN4CCN(C)CC4)cc32)sc1C(N)=O)c1ccccc1C(F)(F)F | > 0.05

stdin: Let me know recorded fraction unbound at 6 h, 2000 ng/mL for C[C@@H](Oc1cc(-n2cnc3ccc(CS(C)(=O)=O)cc32)sc1C(N)=O)c1ccccc1Cl , thanks.
stdout: 0.02 to 0.05

stdin: Quote fraction unbound at 6 h, 2000 ng/mL reported for COc1cc2ncn(-c3cc(OC(C)c4ccccc4C(F)(F)F)c(C(N)=O)s3)c2cc1OC (stereo not shown) [Com. Ex 127, reference compound] please.
stdout: < 0.02

---

IC50 listing for selected compounds.
# System: HCT116
# protocol.text: Cell-Titer-Glo inhibition of cell proliferation, HCT116
# Format: cell-based
# assay.setup: Homo sapiens, HCT-116, CellTiter-Glo, 72 h

structure.as.smiles | assay.system | reported.measurement
C[C@@H](Oc1cc(-n2cnc3ccc(OC4CCNCC4)cc32)sc1C(N)=O)c1ccccc1C(F)(F)F | HCT116 | < 500 nM

Shifting focus to the compound that follows.
stdin: Return value of IC50 for input C[C@@H](Oc1cc(-n2cnc3ccc(CN4CCN(C)CC4)cc32)sc1C(N)=O)c1ccccc1C(F)(F)F , no commentary.
stdout: < 500 nM

---

# Tested on: H460
# protocol.text: Methylene blue growth inhibition assay, H460
# Format: cell-based
# assay.setup: Homo sapiens, NCI-H460; methylene blue, 72 h, H460; read-out: H460 IC50
pIC50: −log10 of the molar value.
measure.name: pIC50

Consider the worked cases shown below.
molecule | assay.system | measure.name | reported.measurement
NC(=O)c1sc(-n2cnc3ccc(OCC4CCNCC4)cc32)cc1OCc1ccccc1C(F)(F)F [Com. Ex 143, reference compound] | H460 | pIC50 | < 6.00
COc1cc2ncn(-c3cc(OC(C)c4ccccc4C(F)(F)F)c(C(N)=O)s3)c2cc1OC (stereo not drawn) [Com. Ex 127, reference compound] | H460 | pIC50 | > 7.00

stdin: Retrieve pIC50 measured for COc1cc2ncn(-c3cc(OCc4ccccc4C(F)(F)F)c(C(N)=O)s3)c2cc1OCCN1CCN(C)CC1 [Com. Ex 136, reference compound] and print it.
stdout: 6.00 to 7.00

stdin: Please report the measured pIC50 for C[C@@H](Oc1cc(-n2cnc3ccc(OC4CCNCC4)cc32)sc1C(N)=O)c1ccccc1Cl
stdout: > 7.00

---

# pIC50 values compiled below
# Tested on: A549
# protocol.text: Methylene blue growth inhibition assay, A549
# Assay type: cell-based
# assay.setup: Homo sapiens; methylene blue, 72 h, A549; read-out: A549 IC50
pIC50: −log10 of the molar value.

molecule | assay.system | measure.name | reported.measurement
C[C@@H](Oc1cc(-n2cnc3ccc(OC4CCNCC4)cc32)sc1C(N)=O)c1ccccc1Cl [Example 6] | A549 | pIC50 | > 7.00
C[C@@H](Oc1cc(-n2cnc3ccc(CN4CCN(C)CC4)cc32)sc1C(N)=O)c1ccccc1C(F)(F)F [Example 3] | A549 | pIC50 | > 7.00
C[C@@H](Oc1cc(-n2cnc3ccc(CS(C)(=O)=O)cc32)sc1C(N)=O)c1ccccc1Cl [Example 2] | A549 | pIC50 | > 7.00
CS(=O)(=O)c1ccc2ncn(-c3cc(OCc4ccccc4C(F)(F)F)c(C(N)=O)s3)c2c1 [Com. Ex 121, reference compound] | A549 | pIC50 | < 6.00
C[C@@H](Oc1cc(-n2cnc3ccc(CN4CCN(C)CC4)cc32)sc1C(N)=O)c1ccccc1Cl [Example 4] | A549 | pIC50 | > 7.00

stdin: Report measured pIC50; entry is COc1cc2ncn(-c3cc(OC(C)c4ccccc4C(F)(F)F)c(C(N)=O)s3)c2cc1OC (centres unmarked) [Com. Ex 127, reference compound]
stdout: > 7.00

stdin: Given NC(=O)c1sc(-n2cnc3ccc(OCC4CCNCC4)cc32)cc1OCc1ccccc1C(F)(F)F [Com. Ex 143, reference compound] , respond with its pIC50.
stdout: < 6.00

stdin: Specify pIC50 for C[C@@H](Oc1cc(-n2cnc3ccc(CS(C)(=O)=O)cc32)sc1C(N)=O)c1ccccc1C(F)(F)F [Example 1] and stop.
stdout: > 7.00

---

# System: A549-L
# protocol.text: Cell-Titer-Glo inhibition of cell proliferation, A549-L
# Format: cell-based
# assay.setup: CellTiter-Glo, 72 h
measure.name: IC50

compound | assay.system | measure.name | reported.measurement
C[C@@H](Oc1cc(-n2cnc3ccc(CN4CCN(C)CC4)cc32)sc1C(N)=O)c1ccccc1C(F)(F)F [Example 3] | A549-L | IC50 | < 500 nM

Next item in the queue.
stdin: State its IC50 for this compound: C[C@@H](Oc1cc(-n2cnc3ccc(OC4CCNCC4)cc32)sc1C(N)=O)c1ccccc1C(F)(F)F [Example 5]
stdout: < 500 nM

---

# protocol.text: High throughput solubility assay
# Assay type: physicochemical
# assay.setup: aqueous buffer, pH 7.4, 0.05M phosphate buffer
measure.name: solubility at 24 h

stdin: Determine from records and report solubility at 24 h for C[C@@H](Oc1cc(-n2cnc3ccc(OC4CCN(C)CC4)cc32)sc1C(N)=O)c1ccccc1Cl [Example 8]
stdout: > 100 µM

stdin: Using known records, supply solubility at 24 h for C[C@@H](Oc1cc(-n2cnc3ccc(CS(C)(=O)=O)cc32)sc1C(N)=O)c1ccccc1C(F)(F)F [Example 1]
stdout: 30 to 100 µM

stdin: Could you please provide reported solubility at 24 h for C[C@@H](Oc1cc(-n2cnc3ccc(OC4CCNCC4)cc32)sc1C(N)=O)c1ccccc1Cl [Example 6] ? Thanks!
stdout: > 100 µM

stdin: Tell us which solubility at 24 h value is on record for COc1cc2ncn(-c3cc(OC(C)c4ccccc4C(F)(F)F)c(C(N)=O)s3)c2cc1OC (stereo not drawn) [Com. Ex 127, reference compound]
stdout: < 30 µM

stdin: Identify measured solubility at 24 h associated with C[C@@H](Oc1cc(-n2cnc3ccc(CN4CCN(C)CC4)cc32)sc1C(N)=O)c1ccccc1C(F)(F)F [Example 3]
stdout: > 100 µM

stdin: Using known records, supply solubility at 24 h for C[C@@H](Oc1cc(-n2cnc3ccc(CS(C)(=O)=O)cc32)sc1C(N)=O)c1ccccc1Cl [Example 2]
stdout: 30 to 100 µM

---

# Tested on: H460
# protocol.text: Methylene blue growth inhibition assay, H460
# Format: cell-based
# assay.setup: Homo sapiens, NCI-H460; methylene blue, 72 h, H460; read-out: H460 IC50
measure.name: IC50

compound | IC50
C[C@@H](Oc1cc(-n2cnc3ccc(CS(C)(=O)=O)cc32)sc1C(N)=O)c1ccccc1Cl | < 100 nM
C[C@@H](Oc1cc(-n2cnc3ccc(CN4CCN(C)CC4)cc32)sc1C(N)=O)c1ccccc1C(F)(F)F | < 100 nM
CS(=O)(=O)c1ccc2ncn(-c3cc(OCc4ccccc4C(F)(F)F)c(C(N)=O)s3)c2c1 [Com. Ex 121, reference compound] | > 1000 nM
C[C@@H](Oc1cc(-n2cnc3ccc(CN4CCN(C)CC4)cc32)sc1C(N)=O)c1ccccc1Cl | < 100 nM

Attention now turns to another entry.
stdin: Item C[C@@H](Oc1cc(-n2cnc3ccc(CS(C)(=O)=O)cc32)sc1C(N)=O)c1ccccc1C(F)(F)F : provide IC50
stdout: < 100 nM
